These data points were gathered from ChEMBL document CHEMBL5528049.

I'd be grateful if you could share measured pIC50 for these entries.
ASSAYED TARGET: Tyrosine-protein kinase JAK2 (Homo sapiens, UniProt O60674)
Sequence (O60674 whole entry): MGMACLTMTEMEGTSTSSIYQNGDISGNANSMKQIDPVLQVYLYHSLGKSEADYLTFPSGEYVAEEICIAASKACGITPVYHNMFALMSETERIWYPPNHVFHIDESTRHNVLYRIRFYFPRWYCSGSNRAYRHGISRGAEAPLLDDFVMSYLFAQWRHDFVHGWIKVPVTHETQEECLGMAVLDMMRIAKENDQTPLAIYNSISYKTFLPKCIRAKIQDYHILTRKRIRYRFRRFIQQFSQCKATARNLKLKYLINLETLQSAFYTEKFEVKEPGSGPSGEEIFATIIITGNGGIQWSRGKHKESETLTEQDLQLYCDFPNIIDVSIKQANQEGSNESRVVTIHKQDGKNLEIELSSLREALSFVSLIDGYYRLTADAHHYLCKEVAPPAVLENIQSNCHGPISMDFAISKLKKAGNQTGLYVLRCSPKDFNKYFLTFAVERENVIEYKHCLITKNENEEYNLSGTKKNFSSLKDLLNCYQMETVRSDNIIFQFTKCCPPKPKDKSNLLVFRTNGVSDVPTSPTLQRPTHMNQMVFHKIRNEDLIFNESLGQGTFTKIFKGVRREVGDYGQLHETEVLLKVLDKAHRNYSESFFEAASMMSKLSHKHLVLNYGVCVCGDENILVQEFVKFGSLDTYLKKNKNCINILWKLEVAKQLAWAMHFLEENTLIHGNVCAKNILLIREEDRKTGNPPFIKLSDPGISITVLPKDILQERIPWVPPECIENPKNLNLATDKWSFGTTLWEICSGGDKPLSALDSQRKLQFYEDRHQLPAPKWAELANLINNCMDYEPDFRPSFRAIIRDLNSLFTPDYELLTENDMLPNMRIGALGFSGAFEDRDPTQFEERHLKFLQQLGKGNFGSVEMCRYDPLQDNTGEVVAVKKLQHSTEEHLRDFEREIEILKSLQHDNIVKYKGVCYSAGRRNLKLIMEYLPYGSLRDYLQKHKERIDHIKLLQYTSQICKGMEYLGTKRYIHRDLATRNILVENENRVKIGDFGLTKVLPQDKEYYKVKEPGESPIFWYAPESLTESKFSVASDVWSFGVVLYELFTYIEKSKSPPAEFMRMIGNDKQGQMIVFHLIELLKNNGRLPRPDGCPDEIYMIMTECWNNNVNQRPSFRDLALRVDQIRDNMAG
TEST METHOD NOTES: Inhibition of JAK2 (unknown origin) incubated for 90 mins in presence of ATP by fluorescence microplate reader
pIC50: −log10 of the molar value.

INSERT INTO assay_data (compound, metric_name, value) VALUES
  ('Cc1cnc(Nc2ccc(NS(C)(=O)=O)cc2)nc1-c1cnn(C(CC#N)C2CCCC2)c1 (racemic)', 'pIC50', '> 9.00');

We next turn to a different compound, shown below.
## Task Consider the compound shown here: CS(=O)(=O)N1CCC(Nc2ncc(C(F)(F)F)c(-c3cnn(C4CCOCC4)c3)n2)CC1 What is its recorded pIC50?
## Result < 5.00
